measured-metric: melting point

1) Cc1cccc(C)c1NC(=O)Nc1ccc(Cl)cc1 :: 244 to 245 °C
2) Cc1ccccc1NC(=O)Nc1ccccc1F :: 224 to 225 °C
3) Cc1ccccc1NC(=O)Nc1ccccc1 :: 241 to 242 °C
4) O=C(Nc1ccccc1)Nc1ccc(F)c(F)c1 :: 213 to 214 °C
5) Cc1ccc(NC(=O)Nc2ccc(Cl)c(Cl)c2)cc1 :: 225 to 226 °C
6) Cc1cccc(C)c1NC(=O)Nc1ccccc1 :: 240 to 241 °C
7) Cc1cccc(C)c1NC(=O)Nc1ccc(Cl)c(Cl)c1 :: 249 to 250 °C
8) Cc1ccc(NC(=O)Nc2c(C)cccc2C)cc1 :: 242 to 243 °C
9) Cc1ccccc1NC(=O)Nc1ccccc1Cl :: 223 to 224 °C

----------
Listed here: items and their measured MIC.
Tested on: S. aureus ATCC 6538P
measured-metric: MIC (mg/L)

1) Cc1ccccc1NC(=O)Nc1ccccc1F [1gl, 1-(2-Metylphenyl)-3-(2-fluorophenyl)urea] :: 32
2) O=C(Nc1ccccc1)Nc1ccccc1 [1ff (NCC), 1,3-Diphenylurea] :: 64
3) O=C(Nc1ccc(Cl)cc1)Nc1ccc(Cl)cc1 [1cc (DCC)] :: 256
4) Cc1ccccc1NC(=O)Nc1ccccc1Cl [1gh] :: 32
5) COc1ccc(NC(=O)Nc2ccccc2)cc1 [1df, 1-(4-Methoxyphenyl)-3-phenylurea] :: 128
6) COc1ccc(NC(=O)Nc2ccc(Cl)c(Cl)c2)cc1 [1de] :: 64
7) Cc1cccc(C)c1NC(=O)Nc1ccccc1 [1bf, 1-(2,6-Dimethylphenyl)-3-phenylurea] :: 16
8) Cc1ccc(NC(=O)Nc2ccccc2)cc1 [1af, 1-(4-Methylphenyl)-3-phenylurea] :: 128
9) Cc1cccc(C)c1NC(=O)Nc1ccc(Cl)cc1 [1bc] :: 16
10) Cc1ccccc1NC(=O)Nc1ccc(F)c(F)c1 [1gj] :: 128
11) Cc1ccccc1NC(=O)Nc1ccc(Cl)c(Cl)c1 [1eg] :: 128
12) Cc1ccc(NC(=O)Nc2ccccc2C)cc1 [1ag] :: 256
13) Cc1ccc(NC(=O)Nc2ccc(Cl)c(Cl)c2)cc1 [1ae, 1-(3,4-Dichlorophenyl)-3-p-tolylurea] :: 64
14) Cc1ccc(NC(=O)Nc2c(C)cccc2C)cc1 [1ab, 1-(2,6-Dimethylphenyl)-3-p-tolylurea] :: 16
15) O=C(Nc1ccc(Cl)cc1)Nc1ccc(Cl)c(Cl)c1 [1ce (TCC), reference compound] :: 16
16) COc1ccc(NC(=O)Nc2c(C)cccc2C)cc1 [1bd] :: 16
17) O=C(Nc1ccccc1)Nc1ccc(Cl)c(Cl)c1 [1ef, 1-(3,4-Dichlorophenyl)-3-phenylurea] :: 128
18) O=C(Nc1ccccc1)Nc1ccc(Cl)cc1 [1cf (MCC), 1-(4-Chlorophenyl)-3-phenylurea] :: 128
19) COc1ccc(NC(=O)Nc2ccc(C)cc2)cc1 [1ad, 1-(4-Methoxyphenyl)-3-(p-tolyl)urea] :: 32

----------
Test system: S. aureus ATCC 29213
measured-metric: MIC (µg/mL)

1) Cc1ccccc1NC(=O)Nc1ccc(Cl)c(Cl)c1 [1eg] :: 256
2) Cc1ccccc1NC(=O)Nc1ccccc1 [1fg, 1-(2-Methylphenyl)-3-phenylurea] :: 256
3) COc1ccc(NC(=O)Nc2ccc(Cl)c(Cl)c2)cc1 [1de] :: 128
4) Cc1cccc(C)c1NC(=O)Nc1ccc(Cl)cc1 [1bc] :: 256
5) O=C(Nc1ccccc1)Nc1ccc(Cl)cc1 [1cf (MCC), 1-(4-Chlorophenyl)-3-phenylurea] :: 128
6) Cc1ccccc1NC(=O)Nc1ccccc1F [1gl, 1-(2-Metylphenyl)-3-(2-fluorophenyl)urea] :: 128

The reported measurements were obtained from paper PMC7922224.
